Target: T1, human KLB on CHOK1-hKLB cells (human, UniProt Q86Z14 1-1044)
T1 construct: whole, on cells; also called human KLB antigen; β-Klotho
T1 sequence (looked up): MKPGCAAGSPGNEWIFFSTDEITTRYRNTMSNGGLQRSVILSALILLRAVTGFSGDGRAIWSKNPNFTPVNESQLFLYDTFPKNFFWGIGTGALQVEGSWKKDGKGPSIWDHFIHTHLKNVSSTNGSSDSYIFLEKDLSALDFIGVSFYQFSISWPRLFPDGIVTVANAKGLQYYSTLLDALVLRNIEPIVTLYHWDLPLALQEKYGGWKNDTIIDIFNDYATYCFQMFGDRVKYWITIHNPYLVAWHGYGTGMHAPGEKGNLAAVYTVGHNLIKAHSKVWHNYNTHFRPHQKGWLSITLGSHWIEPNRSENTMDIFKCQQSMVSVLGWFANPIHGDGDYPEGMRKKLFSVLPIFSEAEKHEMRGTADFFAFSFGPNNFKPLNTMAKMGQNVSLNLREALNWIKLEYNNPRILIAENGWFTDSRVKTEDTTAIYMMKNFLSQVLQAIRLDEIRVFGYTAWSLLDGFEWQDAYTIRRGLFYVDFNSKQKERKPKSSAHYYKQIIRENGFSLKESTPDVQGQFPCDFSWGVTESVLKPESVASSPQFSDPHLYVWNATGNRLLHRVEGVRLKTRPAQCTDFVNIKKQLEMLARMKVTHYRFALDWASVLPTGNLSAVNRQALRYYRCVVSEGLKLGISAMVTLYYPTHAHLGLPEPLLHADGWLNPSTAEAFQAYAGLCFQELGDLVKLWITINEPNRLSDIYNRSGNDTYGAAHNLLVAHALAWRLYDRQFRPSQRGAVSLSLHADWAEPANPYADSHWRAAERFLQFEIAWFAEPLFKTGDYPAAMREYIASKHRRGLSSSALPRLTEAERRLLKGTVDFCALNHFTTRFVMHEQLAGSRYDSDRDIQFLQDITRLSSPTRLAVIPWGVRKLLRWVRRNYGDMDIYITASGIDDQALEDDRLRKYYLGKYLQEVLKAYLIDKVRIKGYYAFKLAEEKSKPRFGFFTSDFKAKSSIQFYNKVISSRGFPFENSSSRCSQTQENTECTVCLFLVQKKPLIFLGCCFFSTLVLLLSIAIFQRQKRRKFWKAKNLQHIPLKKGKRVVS
Experiment: flow cytometry on CHOK1-hKLB cells
# key: entry, value: EC50
# unit: nM | format: bare number

# count of solved cases: 3
binder	obs_value
hAb99-13 (antibody, human IgG1, kappa, L234A L235A, V domains shown, human IgG1 (L234A, L235A) / kappa) VH: EVQLVQSGAEVKKPGASVKVSCKASGYTFTNYGINWVRQAPGQRLEWMGYIYIGNVDIEYNAKFKGRVTITSDTSASTAYMELSSLRSEDTAVYYCARGRGLGHFDVWGQGTTVTVSS VL: DIQMTQSPSSLSASVGDRVTITCRASKSISKFLAWFQQKPGKTNKLLIYSGSTLQSGVPSRFSGSGSGTDFTLTISSLQPEDFATYYCQQHNEYPWTFGGGTKVEIKR	0.32
hAb99-4 (antibody, human IgG1, kappa, L234A L235A, V domains shown, humanized mAb-99: hAb99VH1 + hAb99VL4; human IgG1 (L234A, L235A) / kappa constant regions) VH: EVQLVQSGAEVKKPGASVKVSCKASGYTFTNYGINWVRQAPGQRLEWMGYIYIGNGDIEYNAKFKGRVTITSDTSASTAYMELSSLRSEDTAVYYCARGRGLGHFDVWGQGTTVTVSS VL: DVQITQSPSSLSASVGDRVTITCRASKSISKFLAWFQEKPGKTNKLLIYSGSTLQSGIPSRFSGSGSGTDFTLTISSLQPEDFATYYCQQHNEYPWTFGGGTKVEIKR	0.37
hAb18-13 (antibody, human IgG1, kappa, L234A L235A, V domains shown, humanized mAb-18: hAb18VH1 + hAb18VL2-7; human IgG1 (L234A, L235A) / kappa constant regions) VH: EVQLVQSGAEVKKPGASVKVSCKASGYTFTDYAMHWVRQAPGQRLEWMGVISTYSGTTNYNQNFKGRVTITVDKSASTAYMELSSLRSEDTAVYYCARSGPLDYWGQGTTVTVSS VL: ENVLTQSPDFQSVTPKEKVTITCRASSNVSSSYLHWYQQKPDQSPKLWIYSTSQLASGVPSRFSGSGSGTDYTLTINSLEAEDAATYYCQQYSGYPLTFGQGTKLEIKR	5.4

# context switch: different binder, same EC50
Please give the measured EC50 for this binder: hAb18-4 (antibody, human IgG1, kappa, L234A L235A, V domains shown, humanized mAb-18: hAb18VH2 + hAb18VL2; human IgG1 (L234A, L235A) / kappa constant regions) VH: EVQLVQSGAEVKKPGASVKVSCKGSGYTFTDYAMHWVRQAPGQRLEWMGVISTYSGTTNYNQNFKGRVTVTVDKSASTAYMELSSLRSEDTAVYYCARSGPLDYWGQGTTVTVSS VL: ENVLTQSPDFQSVTPKEKVTITCRASSSVSSSYLHWYQQKPDQSPKLWIYSTSNLASGVPSRFSGSGSGTDYTLTINSLEAEDAATYYCQQYSGYPLTFGQGTKLEIKR
2

# credit: patent US20240270874A1
